biological target: SARS-CoV-2 spike protein bearing furin mutation and truncation in retention sequence, presented in t (SARS-CoV-2, UniProt P0DTC2 14-1273); experiment: cell-based or functional assay
Reported Metric: PV neutralisation IC50 (nM)

1. YANG-2206 (antibody, V domains shown) VH: QIQLVQSGAEVKKPGASVKLSCKTSGYTFTSYYMVWVRQAPGQGLEWMGIIKPSGGNTIFAQKFQGRVTMTRDTSTNTVYMDLNSLRSEDTAVYYCARTGDRAFDVWGHGTMVTVSS VL: QSVLTQPPSVSAAPGQKVTISCSGSSSNIGNNYVSWYQQFPGTAPKLLIYDNNKRPSGIPDRFSGSKSGTSATLGITGLQTGDEADYYCGTWDSSLGAGVFGGGTKVTVL
3.96
2. YANG-2207 (antibody, V domains shown) VH: QMQLVQSGAEVKKPGASVKISCKTSGYTFTNYYMVWVRQAPGQGLEWMGIIKPSGGNTIYAQKFQGRVTMTRDTSTNTVYLDLSSLRSEDTAVYYCARTGNRAFDVWGHGTMVTVSS VL: QSVLTQPPSVSAAPGQKVTISCSGSSSNIGNNFVSWYQQFPGTAPKLLIYDNNKRPSGIPDRFSGSKSGTSATLGITGLQTGDEADYYCGTWDSSLGAGVFGGGTKLTVL
2.59

meta.source: patent US20250026813A1
